- Tgt: T1, soluble baculovirus-expressed gH/gL (HCMV, UniProt P12824 24-720; P16832 31-278)
- T1 construct: also called gH/gL dimer produced in baculovirus; baculovirus expressed, secreted gH/gL
- T1 sequence 1: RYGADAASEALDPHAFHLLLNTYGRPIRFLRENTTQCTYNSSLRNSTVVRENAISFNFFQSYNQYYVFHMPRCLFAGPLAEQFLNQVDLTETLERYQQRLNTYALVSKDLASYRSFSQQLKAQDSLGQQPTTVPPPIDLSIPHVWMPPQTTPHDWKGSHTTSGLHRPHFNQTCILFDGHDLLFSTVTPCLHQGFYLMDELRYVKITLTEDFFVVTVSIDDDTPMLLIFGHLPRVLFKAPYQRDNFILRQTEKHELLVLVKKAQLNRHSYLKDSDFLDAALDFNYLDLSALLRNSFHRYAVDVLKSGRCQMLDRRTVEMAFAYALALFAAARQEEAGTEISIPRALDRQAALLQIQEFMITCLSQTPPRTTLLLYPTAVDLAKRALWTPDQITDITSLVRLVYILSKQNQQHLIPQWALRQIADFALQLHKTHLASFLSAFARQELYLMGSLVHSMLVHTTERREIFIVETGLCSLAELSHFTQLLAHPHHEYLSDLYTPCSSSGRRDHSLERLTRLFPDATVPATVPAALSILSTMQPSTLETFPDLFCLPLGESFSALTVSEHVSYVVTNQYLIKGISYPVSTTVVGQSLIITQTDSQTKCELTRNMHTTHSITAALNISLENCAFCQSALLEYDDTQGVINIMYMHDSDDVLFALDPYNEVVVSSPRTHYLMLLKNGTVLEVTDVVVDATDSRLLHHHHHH
- T1 sequence 2: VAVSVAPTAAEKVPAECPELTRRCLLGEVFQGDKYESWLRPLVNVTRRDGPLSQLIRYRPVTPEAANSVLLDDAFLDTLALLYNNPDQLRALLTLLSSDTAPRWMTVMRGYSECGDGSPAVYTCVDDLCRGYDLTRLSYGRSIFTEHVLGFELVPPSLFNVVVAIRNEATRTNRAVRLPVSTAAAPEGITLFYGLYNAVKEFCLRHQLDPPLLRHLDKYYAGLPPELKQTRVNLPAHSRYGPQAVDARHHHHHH
- Procedure Details: competition phage ELISA: phage-displayed Fab with serially diluted soluble gH/gL, free phage caught on coated gH/gL
Please go through the items and note down their IC50.
Quick note: give the figure in nM, leave out the unit.

Entry under test: MSL-109 Fab variant H2-D53N (Fab, name in Kabat numbering, V domains shown) VH: EEQVLESGGGLVKPGGSLRLSCAASGFTFSPYSVFWVRQAPGKGLEWVSSINSNSTYKYYADSVKGRFTISRDNAENSIFLQMNSLRAEDTAVYYCARDRSYYAFSSGSLSDYYYGLDVWGQGTLVTVSS VL: DIVMTQSPLSLSVTPGEPASISCRSSQSLLHTNGYNYLDWYVQKPGQSPQLLIYLASNRASGVPDRFSGSGSGTDFTLKISRVETEDVGVYYCMQALQIPRTFGQGTKVEIK . Its IC50 was 0.06

The binder listed as MSL-109 Fab variant H2-D53M/T55R (Fab, name in Kabat numbering, V domains shown) VH: EEQVLESGGGLVKPGGSLRLSCAASGFTFSPYSVFWVRQAPGKGLEWVSSINSMSRYKYYADSVKGRFTISRDNAENSIFLQMNSLRAEDTAVYYCARDRSYYAFSSGSLSDYYYGLDVWGQGTLVTVSS VL: DIVMTQSPLSLSVTPGEPASISCRSSQSLLHTNGYNYLDWYVQKPGQSPQLLIYLASNRASGVPDRFSGSGSGTDFTLKISRVETEDVGVYYCMQALQIPRTFGQGTKVEIK shows IC50 equal to 0.07

// field: IC50; key: MSL-109 Fab variant H2-D53S/T55R (Fab, name in Kabat numbering, V domains shown) VH: EEQVLESGGGLVKPGGSLRLSCAASGFTFSPYSVFWVRQAPGKGLEWVSSINSSSRYKYYADSVKGRFTISRDNAENSIFLQMNSLRAEDTAVYYCARDRSYYAFSSGSLSDYYYGLDVWGQGTLVTVSS VL: DIVMTQSPLSLSVTPGEPASISCRSSQSLLHTNGYNYLDWYVQKPGQSPQLLIYLASNRASGVPDRFSGSGSGTDFTLKISRVETEDVGVYYCMQALQIPRTFGQGTKVEIK ; value = 0.03

Note to self: IC50 recorded for MSL-109 Fab variant H2-D53T/T55R (Fab, name in Kabat numbering, V domains shown) VH: EEQVLESGGGLVKPGGSLRLSCAASGFTFSPYSVFWVRQAPGKGLEWVSSINSTSRYKYYADSVKGRFTISRDNAENSIFLQMNSLRAEDTAVYYCARDRSYYAFSSGSLSDYYYGLDVWGQGTLVTVSS VL: DIVMTQSPLSLSVTPGEPASISCRSSQSLLHTNGYNYLDWYVQKPGQSPQLLIYLASNRASGVPDRFSGSGSGTDFTLKISRVETEDVGVYYCMQALQIPRTFGQGTKVEIK was 0.03

IC50 recorded for this binder, MSL-109 Fab variant H2-D53T (Fab, name in Kabat numbering, V domains shown) VH: EEQVLESGGGLVKPGGSLRLSCAASGFTFSPYSVFWVRQAPGKGLEWVSSINSTSTYKYYADSVKGRFTISRDNAENSIFLQMNSLRAEDTAVYYCARDRSYYAFSSGSLSDYYYGLDVWGQGTLVTVSS VL: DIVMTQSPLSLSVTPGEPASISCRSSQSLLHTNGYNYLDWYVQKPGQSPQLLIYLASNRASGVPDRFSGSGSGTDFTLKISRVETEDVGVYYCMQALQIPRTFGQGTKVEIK , is 0.06
